- System: Escherichia coli
- PROTOCOL NOTES: Antimicrobial activity against Escherichia coli ATCC 25922 assessed as inhibition of visible microbial growth incubated for 18 hrs by broth microdilution method
- Format: functional
QUANTITY MEASURED: MIC (µM)
Numbers only, in µM.

Examples with answers:
substance=H-GLRKRLRKFFNKIKF-OH subject_of_test="Escherichia coli" quantity_measured=MIC value_measured=8.2
substance=H-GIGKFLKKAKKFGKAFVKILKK-OH subject_of_test="Escherichia coli" quantity_measured=MIC value_measured=3.2
substance=H-GLRKRLRKFKKFGK-OH subject_of_test="Escherichia coli" quantity_measured=MIC value_measured=72.7
substance=H-GLRKFLRKFKKFGK-OH subject_of_test="Escherichia coli" quantity_measured=MIC value_measured=18.2

Please state MIC for every substance in the list that follows.
1. H-GLRKWLRKFKKFW-OH
2. H-GLRKWLRKFKKFWK-OH

Reply text:
[8.9, 8.3]

Inquiry: Would you please give the reported MIC of H-GLRKFLRKFKKFWK-OH with Escherichia coli?
Reply text: 8.5

###

- System: Staphylococcus aureus
- PROTOCOL NOTES: Antimicrobial activity against multidrug resistant Staphylococcus aureus assessed as inhibition of visible microbial growth incubated for 18 hrs by broth microdilution method
- Type: functional
Starred links: 1 amine or outer side, 2 acyl side, 3 side chain; linkers in the order of their positions; H or OH if unused. Non-standard residues stand in square brackets, D forms with d. Residues, ends and D or L forms follow the SMILES beside them. εLys = N[C@@H](CCCCN[*:1])C(=O)[*:2]; Dab = NCC[C@H](N)C(=O)O
Record form. Attribute: MIC. Fill in for each entry.

compound="CC(C)C[C@H](NC(=O)CN)C(=O)N[C@@H](CCCNC(=N)N)C(=O)N[C@@H](CCCCN)C(=O)N[C@@H](Cc1c[nH]c2ccccc12)C(=O)N[C@@H](CC(C)C)C(=O)N[C@@H](CCCNC(=N)N)C(=O)N[C@@H](CCCCN)C(=O)N[C@@H](Cc1ccccc1)C(=O)N[C@@H](CCCCN)C(=O)NCCCC[C@H](N)C(=O)N[C@@H](Cc1ccccc1)C(=O)N[C@@H](Cc1c[nH]c2ccccc12)C(=O)O (H-GLRKWLRKFK[εLys]FW-OH)" value_measured="17.9 µM"
compound=CC(C)C[C@H](NC(=O)CN)C(=O)N[C@@H](CCCNC(=N)N)C(=O)N[C@H](CCCCN)C(=O)N[C@@H](Cc1c[nH]c2ccccc12)C(=O)N[C@@H](CC(C)C)C(=O)N[C@@H](CCCNC(=N)N)C(=O)N[C@@H](CCN)C(=O)N[C@@H](Cc1ccccc1)C(=O)N[C@@H](CCCCN)C(=O)N[C@@H](CCCCN)C(=O)N[C@@H](Cc1ccccc1)C(=O)N[C@@H](Cc1c[nH]c2ccccc12)C(=O)O value_measured="18.1 µM"

Moving on to another compound below.
Inquiry: Specify measured MIC for CC(C)C[C@H](NC(=O)CN)C(=O)N[C@@H](CCCNC(=N)N)C(=O)N[C@@H](CCCCN)C(=O)N[C@@H](Cc1c[nH]c2ccccc12)C(=O)N[C@@H](CC(C)C)C(=O)N[C@@H](CCCNC(=N)N)C(=O)N[C@@H](CCCCN)C(=O)N[C@@H](Cc1ccccc1)C(=O)N[C@@H](CCN)C(=O)N[C@@H](CCCCN)C(=O)N[C@@H](Cc1ccccc1)C(=O)N[C@@H](Cc1c[nH]c2ccccc12)C(=O)O (H-GLRKWLRKF[Dab]KFW-OH) .
Reply text: 18.1 µM

###

- PROTOCOL NOTES: Cytotoxicity against HEK293T cells assessed as survival rate at 64 microg/ml measured after 24 hrs by CCK-8 assay relative to control
- Type: toxicity, cell-based, HEK-293T
- CONDITION LABEL: human, at 64 µg/mL, read-out: Survival
Non-standard residues stand in square brackets, D forms with d. Residues, ends and D or L forms follow the SMILES beside them. Dab = NCC[C@H](N)C(=O)O
QUANTITY MEASURED: viability at 24 h, 64 µg/mL

Please state viability at 24 h, 64 µg/mL for every compound in the list that follows.
1. CC(C)C[C@H](NC(=O)CN)C(=O)N[C@@H](CCN)C(=O)N[C@@H](CCN)C(=O)N[C@@H](Cc1c[nH]c2ccccc12)C(=O)N[C@@H](CC(C)C)C(=O)N[C@@H](CCN)C(=O)N[C@@H](CCN)C(=O)N[C@@H](Cc1ccccc1)C(=O)N[C@@H](CCN)C(=O)N[C@@H](CCN)C(=O)N[C@@H](Cc1ccccc1)C(=O)N[C@@H](Cc1c[nH]c2ccccc12)C(=O)O (H-GL[Dab][Dab]WL[Dab][Dab]F[Dab][Dab]FW-OH)
2. CC(C)C[C@H](NC(=O)CN)C(=O)N[C@@H](CCCNC(=N)N)C(=O)N[C@@H](CCN)C(=O)N[C@@H](Cc1c[nH]c2ccccc12)C(=O)N[C@@H](CC(C)C)C(=O)N[C@@H](CCCNC(=N)N)C(=O)N[C@@H](CCN)C(=O)N[C@@H](Cc1ccccc1)C(=O)N[C@@H](CCN)C(=O)N[C@@H](CCN)C(=O)N[C@@H](Cc1ccccc1)C(=O)N[C@@H](Cc1c[nH]c2ccccc12)C(=O)O (H-GLR[Dab]WLR[Dab]F[Dab][Dab]FW-OH)

Reply text:
["> 80%", "> 80%"]

###

- System: Staphylococcus aureus
- PROTOCOL NOTES: Antimicrobial activity against multidrug resistant Staphylococcus aureus assessed as inhibition of visible microbial growth incubated for 18 hrs by broth microdilution method
- Type: functional
Cut-off 30 µM on MIC: below means yes (1), at or above means no (0).

substance=H-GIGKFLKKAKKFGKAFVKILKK-OH qualitative_label="yes (1)"

Inquiry: Would you kindly verify if MIC of H-GLRKWLRKFKKFWK-OH is strictly less than 30 µM?
Reply text: yes (1)

Inquiry: Would you kindly verify if MIC of H-GLRKWLRKFKKFW-OH is strictly less than 30 µM?
Reply text: yes (1)

Inquiry: Would you kindly verify if MIC of H-GLRKRLRKFKKFGK-OH is strictly less than 30 µM?
Reply text: no (0)

Inquiry: Would you kindly verify if MIC of H-GLRKRLRKFFNKIKF-OH is strictly less than 30 µM?
Reply text: no (0)

Inquiry: Would you kindly verify if MIC of H-GLRKFLRKFKKFWK-OH is strictly less than 30 µM?
Reply text: no (0)

Inquiry: Would you kindly verify if MIC of H-GLRKFLRKFKKFGK-OH is strictly less than 30 µM?
Reply text: no (0)
